Would you kindly list viability, T/C for each of these compounds?
Test system: 616215-338-R-J1-PDC complex spheroid viability;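 note: spheroids exposed to agents for seven days before viability readout; 100% = DMSO vehicle control viability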
Assay: Anticancer human tumor 616215-338-R-J1-PDC patient-derived colon adenocarcinoma cell line growth inhibition [RAS]
Details: second compound 0.01 µM; first compound 3.16 µM; hits give low values

**Q:** Param item = CC1(O)CCCC1n1c(=O)c(C(F)F)cc2cnc(NC3CCN(S(C)(=O)=O)CC3)nc21 (stereo not drawn) + C=CC(=O)N1CCN(c2nc(OCC3CCCN3C)nc3c(F)c(-c4nc(N)cc(C)c4C(F)(F)F)c(Cl)cc23)C(C)C1 ; retrieve measured viability, T/C.
**A:** 49.4%

**Q:** Look at this compound and give its reported viability, T/C. NC1c2ccccc2OC12CCN(c1cnc3c(N4CCCc5ncccc54)n[nH]c3n1)CC2 (stereo not drawn) + C=CC(=O)N1CCN(c2nc(OCC3CCCN3C)nc3c(F)c(-c4nc(N)cc(C)c4C(F)(F)F)c(Cl)cc23)C(C)C1
**A:** 83%

**Q:** Report viability, T/C for C[C@@H](NC(=O)c1ncnc(N)c1Cl)c1ncc(C(=O)Nc2cc(C(F)(F)F)c(Cl)cn2)s1 + C=CC(=O)N1CCN(c2nc(OCC3CCCN3C)nc3c(F)c(-c4nc(N)cc(C)c4C(F)(F)F)c(Cl)cc23)C(C)C1 please.
**A:** 97.1%

**Q:** I am curious: what viability, T/C value has been reported for CCC(CC)c1cc(NC2CCC(N)C2)n2nccc2n1 (stereo not drawn) + C=CC(=O)N1CCN(c2nc(OCC3CCCN3C)nc3c(F)c(-c4nc(N)cc(C)c4C(F)(F)F)c(Cl)cc23)C(C)C1 ?
**A:** 0.87%

**Q:** So what's the measured viability, T/C for this one? CC(Nc1ccc2c(c1)OCCn1cc(N3C(=O)OCC3C(F)F)nc1-2)C(N)=O (stereo not drawn) + C=CC(=O)N1CCN(c2nc(OCC3CCCN3C)nc3c(F)c(-c4nc(N)cc(C)c4C(F)(F)F)c(Cl)cc23)C(C)C1
**A:** 105%

**Q:** // lookup viability, T/C for Cc1nc(N2CCC3(CC2)COC(C)C3N)c(CO)nc1Sc1ccnc(N)c1Cl (stereo not drawn) + C=CC(=O)N1CCN(c2nc(OCC3CCCN3C)nc3c(F)c(-c4nc(N)cc(C)c4C(F)(F)F)c(Cl)cc23)C(C)C1
**A:** 90.2%

**Q:** Requested field: viability, T/C. Item: CC(C)NCC(C(=O)N1CCN(c2ncnc3c2C(C)CC3O)CC1)c1ccc(Cl)cc1 (stereo not drawn) + C=CC(=O)N1CCN(c2nc(OCC3CCCN3C)nc3c(F)c(-c4nc(N)cc(C)c4C(F)(F)F)c(Cl)cc23)C(C)C1
**A:** 95.1%

**Q:** Reported viability, T/C for CC(=O)OC12COC1CC(O)C1(C)C(=O)C(O)C3=C(C)C(OC(=O)C(O)C(NC(=O)OC(C)(C)C)c4ccccc4)CC(O)(C(OC(=O)c4ccccc4)C21)C3(C)C (stereo not drawn) + C=CC(=O)N1CCN(c2nc(OCC3CCCN3C)nc3c(F)c(-c4nc(N)cc(C)c4C(F)(F)F)c(Cl)cc23)C(C)C1 : what is it?
**A:** 18.7%

Source: PubChem BioAssay AID2060898
